# setup conditions: human;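 also: steatosis confirmed by histopathology, value is the count of indexed references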
*1 amine or outer side, *2 acyl side, *3 side chain or, on linkers, in order; H or OH if unused. Where a SMILES comes first, the peptide text is derived from it. Bridges are numbered along the chain shown (N, C = ends). [ ]: non-standard residue; d: D form. The star is where a group is joined. ξ: configuration not given here. X2 = N=C1NCCC([C@H](N[*:1])C(=O)[*:2])N1; ΔAla(Z-3-ureido) = NC(=O)N/C=C(\N)C(=O)O; ξβ3hOrn = NCCCC(N)CC(=O)*; Dap = NC[C@H](N)C(=O)O
assay readout: Hepatotoxicity (steatosis)
Just the number, please, no unit after it.

Completed entries (count: 2):
CN[C@H]1CC[C@@H](c2ccc(Cl)c(Cl)c2)c2ccccc21 | 0
Cc1ccc(NC(=O)c2ccc(CN3CCN(C)CC3)cc2)cc1Nc1nccc(-c2cccnc2)n1 | 0

Name the recorded Hepatotoxicity (steatosis) of the item FC(F)(F)C(Cl)Br (stereo unspecified) in your answer.
1

Annotate the molecule COc1ccc2c(c1)N(C[C@H](C)CN(C)C)c1ccccc1S2 with its measured Hepatotoxicity (steatosis).
0

Answer with reported Hepatotoxicity (steatosis) of CNCCON=c1c2ccccc2ccc2ccccc12
0

Item C[C@@H]1NC(=O)[C@@H](N)CNC(=O)[C@H](C2CCNC(=N)N2)NC(=O)/C(=C/NC(N)=O)NC(=O)[C@H](CNC(=O)CC(N)CCCN)NC1=O.N=C1NCCC([C@@H]2NC(=O)/C(=C/NC(N)=O)NC(=O)[C@H](CNC(=O)CC(N)CCCN)NC(=O)[C@H](CO)NC(=O)[C@@H](N)CNC2=O)N1 (stereo partly drawn) [CAPREOMYCIN] (H-[Dap]S[Dap](ξβ3hOrn)[ΔAla(Z-3-ureido)][X2]; lactam 1-C) : provide Hepatotoxicity (steatosis)
0

Given the molecule CO/N=C(\C(=O)N[C@@H]1C(=O)N2C(C(=O)[O-])=C(C[n+]3cccc4c3CCC4)CS[C@H]12)c1csc(N)n1 , write its reported Hepatotoxicity (steatosis).
0

Dear colleague, please send me the reported Hepatotoxicity (steatosis) for C=CC1=C(C(=O)O)N2C(=O)[C@@H](NC(=O)/C(=N\O)c3csc(N)n3)[C@H]2SC1 when you can.
0

Identify measured Hepatotoxicity (steatosis) corresponding to Nc1ccn([C@H]2CC[C@@H](CO)O2)c(=O)n1
2

Reference source for all entries: ChEMBL document CHEMBL3137667
